# target_system: PI3Kδ (Homo sapiens, UniProt O00329)
# Sequence (O00329 with tags, fused parts or gaps): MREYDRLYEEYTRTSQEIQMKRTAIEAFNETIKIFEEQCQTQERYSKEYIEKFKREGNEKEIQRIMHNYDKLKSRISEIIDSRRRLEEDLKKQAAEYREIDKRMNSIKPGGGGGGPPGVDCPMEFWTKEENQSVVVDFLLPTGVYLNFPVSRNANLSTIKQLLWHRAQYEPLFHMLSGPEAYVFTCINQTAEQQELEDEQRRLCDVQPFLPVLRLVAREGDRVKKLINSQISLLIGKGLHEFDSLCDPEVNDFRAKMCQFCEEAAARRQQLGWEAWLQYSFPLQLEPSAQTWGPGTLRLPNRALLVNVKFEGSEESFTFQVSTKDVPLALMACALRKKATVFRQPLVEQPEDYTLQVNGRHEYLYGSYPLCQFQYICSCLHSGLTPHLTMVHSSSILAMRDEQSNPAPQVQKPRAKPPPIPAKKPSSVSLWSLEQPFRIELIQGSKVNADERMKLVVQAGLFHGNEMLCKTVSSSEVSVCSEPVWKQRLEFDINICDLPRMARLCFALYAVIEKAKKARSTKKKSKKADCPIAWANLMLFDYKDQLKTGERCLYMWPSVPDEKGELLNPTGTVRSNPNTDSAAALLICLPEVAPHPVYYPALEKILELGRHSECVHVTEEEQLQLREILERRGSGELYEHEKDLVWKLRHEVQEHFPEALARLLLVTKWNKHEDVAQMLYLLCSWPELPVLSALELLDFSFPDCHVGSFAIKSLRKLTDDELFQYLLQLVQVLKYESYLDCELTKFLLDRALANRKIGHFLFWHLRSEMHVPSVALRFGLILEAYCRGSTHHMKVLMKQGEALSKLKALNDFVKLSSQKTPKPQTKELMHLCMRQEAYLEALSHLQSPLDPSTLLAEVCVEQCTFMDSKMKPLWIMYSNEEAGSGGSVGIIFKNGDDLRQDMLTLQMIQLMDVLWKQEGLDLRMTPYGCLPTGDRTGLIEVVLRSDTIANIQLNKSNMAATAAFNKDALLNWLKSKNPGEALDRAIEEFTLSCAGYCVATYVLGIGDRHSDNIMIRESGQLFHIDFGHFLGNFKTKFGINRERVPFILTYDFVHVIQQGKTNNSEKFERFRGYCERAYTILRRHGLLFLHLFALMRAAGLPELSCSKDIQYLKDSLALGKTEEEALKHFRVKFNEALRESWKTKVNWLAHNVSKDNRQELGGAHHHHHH
value_kind: IC50 (nM)

Consider the following illustrative entries.
>>> print(df.to_string())
                        structure_as_smiles                         target_system  unit_label  obs_value
0  Cc1nc(NC(=O)N2CCC[C@H]2C(N)=O)sc1-c1ccnc(-c2ccccc2F)n1  PI3Kδ (Homo sapiens, UniProt O00329)          nM        690
1  Cc1nc(NC(=O)N2CCC[C@H]2C(N)=O)sc1-c1ccnc(C2(C)CC2)n1  PI3Kδ (Homo sapiens, UniProt O00329)          nM        289
2  Cc1nc(NC(=O)N2CCC[C@H]2C(N)=O)sc1-c1ccnc(C(C)(C)C)c1  PI3Kδ (Homo sapiens, UniProt O00329)          nM        971

1: Cc1nc(NC(=O)N2CCC[C@H]2C(N)=O)sc1-c1ccnc(C2(C)CC2)c1
2: COc1ccc(C(C)(C)c2cc(-c3sc(NC(=O)N4CCC[C@H]4C(N)=O)nc3C)ccn2)cc1
query: Which numeric IC50 is bigger, that of 1 or that of 2 ? // respond with label for picked entry
result: 1

A: CC(C)(c1cc(-c2cnc(NC(=O)N3CCC[C@H]3C(N)=O)s2)ccn1)C(F)(F)F
B: Cc1nc(NC(=O)N2CCC[C@H]2C(N)=O)sc1-c1cncc(C2CC2)n1
query: // which entry reports the smaller IC50, A or B ? Reply briefly: the label of your chosen item.
result: A
(A: 197 nM, B: 298 nM)

----------
# target_system: PI3Kβ (Homo sapiens, UniProt P42338)
# Construct: p110β(2-1070)-His; made in house; host or cells: baculovirus, Tn5 insect cells
# Sequence (P42338 with tags, fused parts or gaps): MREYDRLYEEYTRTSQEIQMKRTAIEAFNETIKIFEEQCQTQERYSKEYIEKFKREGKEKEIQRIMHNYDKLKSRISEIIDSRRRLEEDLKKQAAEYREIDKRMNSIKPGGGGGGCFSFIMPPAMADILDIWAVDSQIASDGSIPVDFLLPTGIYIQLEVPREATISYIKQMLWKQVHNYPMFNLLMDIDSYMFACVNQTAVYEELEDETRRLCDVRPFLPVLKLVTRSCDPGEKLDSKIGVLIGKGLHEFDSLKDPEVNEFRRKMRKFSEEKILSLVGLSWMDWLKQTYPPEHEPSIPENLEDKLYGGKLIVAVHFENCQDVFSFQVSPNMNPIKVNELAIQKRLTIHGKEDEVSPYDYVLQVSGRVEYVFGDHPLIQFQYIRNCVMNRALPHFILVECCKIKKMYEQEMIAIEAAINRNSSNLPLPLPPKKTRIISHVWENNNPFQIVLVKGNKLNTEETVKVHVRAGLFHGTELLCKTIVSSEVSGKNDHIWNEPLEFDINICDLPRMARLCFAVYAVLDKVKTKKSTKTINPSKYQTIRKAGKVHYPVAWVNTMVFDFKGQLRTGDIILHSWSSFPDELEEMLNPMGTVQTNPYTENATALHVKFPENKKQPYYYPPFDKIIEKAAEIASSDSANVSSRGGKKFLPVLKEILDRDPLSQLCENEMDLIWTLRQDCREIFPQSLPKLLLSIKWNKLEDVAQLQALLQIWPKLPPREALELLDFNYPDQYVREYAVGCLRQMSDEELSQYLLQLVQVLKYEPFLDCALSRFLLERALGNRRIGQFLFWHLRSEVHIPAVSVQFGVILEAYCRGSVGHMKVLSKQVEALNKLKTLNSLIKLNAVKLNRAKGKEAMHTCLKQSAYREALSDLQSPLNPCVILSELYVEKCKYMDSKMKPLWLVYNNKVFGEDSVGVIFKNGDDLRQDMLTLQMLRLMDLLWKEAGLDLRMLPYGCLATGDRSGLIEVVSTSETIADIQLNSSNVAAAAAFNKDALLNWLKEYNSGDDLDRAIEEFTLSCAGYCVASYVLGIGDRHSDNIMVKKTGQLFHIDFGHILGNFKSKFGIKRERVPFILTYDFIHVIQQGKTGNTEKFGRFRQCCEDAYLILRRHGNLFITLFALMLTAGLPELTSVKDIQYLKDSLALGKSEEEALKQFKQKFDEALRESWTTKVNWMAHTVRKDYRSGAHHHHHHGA
# test_details: PI3K KinaseGlo assay, PI3Kβ
# Type: biochemical
# condition_label: KinaseGlo; 25 nM enzyme, 1 μM ATP, 30 mins, room temperature; read-out: PI3Kb/IC50
value_kind: IC50 (µM)

                                   molecule                         target_system  value_kind  obs_value
0  Cc1nc(NC(=O)N2CCC[C@H]2C(N)=O)sc1-c1ccnc(C2(C#N)CC2)c1 [Example 18]  PI3Kβ (Homo sapiens, UniProt P42338)        IC50       4.14

1: Cc1nc(NC(=O)N2CCC[C@H]2C(N)=O)sc1-c1ccnc(-c2ccccc2F)n1 [Example 51]
2: CCN(CC)c1nccc(-c2sc(NC(=O)N3CCC[C@H]3C(N)=O)nc2C)n1 [Example 63]
query: Among 1 and 2 , whose measured IC50 is the smaller figure? Reply with the label of the item you choose.
result: 2

----------
# test_details: In vitro metabolic clearance, human liver microsomes (CYP MetCL-Hu)
# Format: in vitro ADME
# condition_label: human liver microsomes 0.5 mg/mL, test article 1.0 μM, NADPH, 37° C.; read-out: CYP MetCL-Hu/CL(int)
value_kind: microsomal CLint at 1 μM (µL/min/mg)

                                   compound  unit_label  obs_value
0  Cc1nc(NC(=O)N2CCC[C@H]2C(N)=O)sc1-c1ccnc(C(C)(CF)CF)c1 [Example 55]   µL/min/mg         27
1  [2H]C([2H])([2H])C(c1nccc(-c2sc(NC(=O)N3CCC[C@H]3C(N)=O)nc2C)n1)(C([2H])([2H])[2H])C([2H])([2H])[2H] [Example 61]   µL/min/mg         19
2  Cc1nc(NC(=O)N2CCC[C@H]2C(N)=O)sc1-c1ccnc(C(C)(C)C(F)(F)F)c1 [Example 15]   µL/min/mg         33

----------
# test_details: In vitro metabolic clearance, rat liver microsomes (CYP MetCL-Ra)
# Assay type: in vitro ADME
# condition_label: rat liver microsomes 0.5 mg/mL, test article 1.0 μM, NADPH, 37° C.; read-out: CYP MetCL-Ra/CL(int)
value_kind: microsomal CLint at 1 μM (µL/min/mg)
# value in µL/min/mg; strip the unit string

In [3]: df
Out[3]:
                        structure_as_smiles                value_kind  obs_value
0  Cc1nc(NC(=O)N2CCC[C@H]2C(N)=O)sc1-c1ccnc(C(C)(CF)CF)c1  microsomal CLint at 1 μM         29

# context switch: different molecule, same microsomal CLint at 1 μM
query: Look up and report measured microsomal CLint at 1 μM for this entry: [2H]C([2H])([2H])C(c1nccc(-c2sc(NC(=O)N3CCC[C@H]3C(N)=O)nc2C)n1)(C([2H])([2H])[2H])C([2H])([2H])[2H]
result: 22

----------
# target_system: PI3Kα (Homo sapiens)
# Construct: p110α(21-1068)-His; made in house; host or cells: baculovirus, Tn5 insect cells
# Sequence (P42336 with tags, fused parts or gaps): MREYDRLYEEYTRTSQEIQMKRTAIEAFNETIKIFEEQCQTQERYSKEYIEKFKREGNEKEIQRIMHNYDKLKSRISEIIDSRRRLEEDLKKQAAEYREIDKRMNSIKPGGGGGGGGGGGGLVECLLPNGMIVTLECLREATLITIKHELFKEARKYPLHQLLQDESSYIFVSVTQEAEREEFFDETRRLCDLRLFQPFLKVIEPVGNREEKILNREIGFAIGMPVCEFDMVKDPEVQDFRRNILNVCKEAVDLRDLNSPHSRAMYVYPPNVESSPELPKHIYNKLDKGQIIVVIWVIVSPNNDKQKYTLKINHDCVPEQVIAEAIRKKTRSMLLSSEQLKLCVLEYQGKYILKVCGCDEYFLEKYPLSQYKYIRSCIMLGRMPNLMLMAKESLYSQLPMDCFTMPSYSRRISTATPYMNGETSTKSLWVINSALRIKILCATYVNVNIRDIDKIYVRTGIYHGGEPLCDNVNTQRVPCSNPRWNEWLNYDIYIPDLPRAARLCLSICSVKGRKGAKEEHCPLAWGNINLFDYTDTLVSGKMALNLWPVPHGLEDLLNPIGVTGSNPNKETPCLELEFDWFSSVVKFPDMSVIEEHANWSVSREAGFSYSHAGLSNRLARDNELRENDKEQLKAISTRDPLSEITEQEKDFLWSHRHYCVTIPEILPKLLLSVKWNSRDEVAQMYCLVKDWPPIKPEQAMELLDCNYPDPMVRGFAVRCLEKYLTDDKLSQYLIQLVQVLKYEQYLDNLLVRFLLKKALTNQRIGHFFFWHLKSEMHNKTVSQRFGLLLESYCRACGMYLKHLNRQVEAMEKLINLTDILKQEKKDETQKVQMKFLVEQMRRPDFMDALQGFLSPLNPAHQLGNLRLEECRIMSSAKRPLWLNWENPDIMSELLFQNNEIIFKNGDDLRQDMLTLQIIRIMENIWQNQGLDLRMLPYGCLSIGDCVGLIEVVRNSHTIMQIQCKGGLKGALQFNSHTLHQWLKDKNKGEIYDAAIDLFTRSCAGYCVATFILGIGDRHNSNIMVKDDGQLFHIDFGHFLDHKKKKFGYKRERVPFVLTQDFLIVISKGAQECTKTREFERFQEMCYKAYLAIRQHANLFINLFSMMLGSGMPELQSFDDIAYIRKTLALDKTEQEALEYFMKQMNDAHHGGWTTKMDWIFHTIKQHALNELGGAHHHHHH
# test_details: PI3K KinaseGlo assay, PI3Kα
# Type: biochemical
# condition_label: KinaseGlo; 10 nM enzyme, 1 μM ATP, 30 mins, room temperature; read-out: PI3Ka/IC50
value_kind: IC50 (nM)

Some compounds with recorded IC50:
>>> print(df.to_string())
                                   compound         target_system  value_kind  unit_label  obs_value
0  Cc1nc(NC(=O)N2CCC[C@H]2C(N)=O)sc1-c1ccnc(Cc2c(Cl)cccc2Cl)n1 [Example 47]  PI3Kα (Homo sapiens)        IC50          nM         94
1  Cc1nc(NC(=O)N2CCC[C@H]2C(N)=O)sc1-c1ccnc(C(C)(C)C(F)(F)F)n1 [Example 64]  PI3Kα (Homo sapiens)        IC50          nM         10
2  Cc1nc(NC(=O)N2CCC[C@H]2C(N)=O)sc1-c1ccnc(C2CC2)n1 [Example 59]  PI3Kα (Homo sapiens)        IC50          nM         64

a: COc1ccc(C(C)(C)c2cc(-c3sc(NC(=O)N4CCC[C@H]4C(N)=O)nc3C)ccn2)cc1 [Example 27]
b: COc1ccc(C2(c3cc(-c4sc(NC(=O)N5CCC[C@H]5C(N)=O)nc4C)ccn3)CC2)cc1 [Example 29]
query: Hi there! Just curious which has the higher IC50 between a and b . Field: selected label. Fill in the label of the entry you choose.
result: a

a: Cc1nc(NC(=O)N2CCC[C@H]2C(N)=O)sc1-c1ccnc(-c2ccccc2F)n1 [Example 51]
b: Cc1nc(NC(=O)N2CCC[C@H]2C(N)=O)sc1-c1ccnc(C2(C)CC2)c1 [Example 5]
c: Cc1nc(NC(=O)N2CCC[C@H]2C(N)=O)sc1-c1cncc(C2CC2)n1 [Example 66]
d: Cc1nc(NC(=O)N2CCC[C@H]2C(N)=O)sc1-c1ccnc(-c2ccccc2F)c1 [Example 3]
query: Ascending sort, IC50. Please, when replying, give the labels in the order that was requested.
result: c, b, d, a
(c: 13 nM, b: 44 nM, d: 67 nM, a: 113 nM)

----------
# target_system: PI3Kβ (Homo sapiens, UniProt P42338)
# Construct: p110β(2-1070)-His; made in house; host or cells: baculovirus, Tn5 insect cells
# test_details: PI3K KinaseGlo assay, PI3Kβ
# Type: biochemical
# condition_label: KinaseGlo; 25 nM enzyme, 1 μM ATP, 30 mins, room temperature; read-out: PI3Kb/IC50
pIC50: −log10 of the molar value.
value_kind: pIC50

>>> df
                                   compound  obs_value
0  Cc1nc(NC(=O)N2CCC[C@H]2C(N)=O)sc1-c1ccnc(Cc2c(Cl)cccc2Cl)n1 [Example 47]       5.54
1  Cc1nc(NC(=O)N2CCC[C@H]2C(N)=O)sc1-c1ccnc(C2(C)CC2)c1 [Example 5]       5.41

a: Cc1nc(NC(=O)N2CCC[C@H]2C(N)=O)sc1-c1ccnc(C(C)(C)C(F)(F)F)n1 [Example 64]
b: Cc1nc(NC(=O)N2CCC[C@H]2C(N)=O)sc1-c1cncc(C2CC2)n1 [Example 66]
query: Out of a and b , name the one with the higher pIC50. Refer to your chosen entry by its label in the reply.
result: a
(a: 6.16, b: 5.56)

----------
# target_system: PI3Kalpha H1047R (Homo sapiens, UniProt P42336, H1047R)
# Sequence (P42336 with tags, fused parts or gaps H1047R): as the sequence (P42336 with tags, fused parts or gaps) above, with G112I, G113S, G119I, G120M, G121V, H1148R counted along it
# test_details: Luciferase luminescence assay (KinaseGlo), PI3Kalpha H1047R
# condition_label: construct BV1097; 1 μM ATP, 15 min preincubation, 1 h, room temperature; read-out: PI3Kalpha H1047R IC50s
value_kind: IC50 (nM)
Give the number; nM is assumed, so skip it.

query: Tell me measured IC50 for Cc1nc(NC(=O)N2CCC[C@H]2C(N)=O)sc1-c1ccnc(C2(C)CC2)c1 please.
result: 7.7
